target-desc: CYP3A4 (Homo sapiens, UniProt P08684)
Construct: 0.1 mg/mL human liver microsomes; from tissue; host or cells: human liver microsomes
Sequence (P08684 whole entry): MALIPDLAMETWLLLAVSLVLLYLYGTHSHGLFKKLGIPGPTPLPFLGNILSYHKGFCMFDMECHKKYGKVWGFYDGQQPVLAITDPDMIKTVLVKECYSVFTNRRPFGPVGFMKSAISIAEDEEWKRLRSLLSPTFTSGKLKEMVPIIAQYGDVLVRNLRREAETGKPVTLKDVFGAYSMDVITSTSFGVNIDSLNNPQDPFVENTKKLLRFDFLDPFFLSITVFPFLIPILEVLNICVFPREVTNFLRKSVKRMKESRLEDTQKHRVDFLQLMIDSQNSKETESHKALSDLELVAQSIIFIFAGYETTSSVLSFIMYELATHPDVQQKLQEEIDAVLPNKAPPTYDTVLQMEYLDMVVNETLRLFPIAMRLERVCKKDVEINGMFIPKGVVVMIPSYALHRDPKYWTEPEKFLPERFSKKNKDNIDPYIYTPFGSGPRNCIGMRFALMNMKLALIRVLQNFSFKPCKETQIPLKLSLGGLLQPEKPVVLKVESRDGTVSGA
assay-summary: IC50 against CYP3A4 by inhibition of testosterone metabolism in human liver microsomes
Type: biochemical
condition-set: 0.1 mg/mL human liver microsomes, 25 μM testosterone, 1 mM NADPH, 6-β-OH-testosterone production, eight minutes; read-out: IC50, μM (HLM, testosterone)
measured-parameter: IC50 (µM)

# annotated cases, reported IC50 shown
- molecule: "CC(C)(O)CNC(=O)Cn1nc(-c2ccncc2)cc1Cc1ccc(F)cc1 [Example 60]"
  unit-tag: "µM"
  meas-value: 0.032
- molecule: "CCNC(=O)N(C)C1CCN(C(=O)Cn2nc(-c3ccncc3)cc2Cc2ccc(F)cc2)CC1 [Example 115]"
  unit-tag: "µM"
  meas-value: 0.015
- molecule: "O=C(Cn1nc(-c2ccncc2)cc1Cc1ccc(F)cc1)NCc1ncc(F)cn1 [Example 81]"
  unit-tag: "µM"
  meas-value: 0.068
- molecule: "O=C(Cn1nc(-c2c[nH]cn2)cc1Cc1ccc(F)cc1)N1CCN(c2ncccn2)CC1 [Example 108]"
  unit-tag: "µM"
  meas-value: 0.241

(a) COC(=O)NC1CN(C(=O)Cn2nc(-c3ccncc3)cc2Cc2ccc(F)cc2)C1 [Example 124]
(b) O=C(Cn1nc(-c2ccncc2)cc1Cc1ccc(F)cc1)N1CCCC(N2CCOCC2)CC1 (centres unmarked) [Example 4]
Consider entries a and b . Which has the numerically lower IC50? Kindly give the label for the entry you pick.
a
